Each entry below lists one item and its recorded Kd value.
# Target desc: Munc18-1 (Rattus norvegicus)
# Construct: His (C); made in house; host or cells: Escherichia coli Rosetta BL21 (DE3)
# Sequence (P61765 whole entry): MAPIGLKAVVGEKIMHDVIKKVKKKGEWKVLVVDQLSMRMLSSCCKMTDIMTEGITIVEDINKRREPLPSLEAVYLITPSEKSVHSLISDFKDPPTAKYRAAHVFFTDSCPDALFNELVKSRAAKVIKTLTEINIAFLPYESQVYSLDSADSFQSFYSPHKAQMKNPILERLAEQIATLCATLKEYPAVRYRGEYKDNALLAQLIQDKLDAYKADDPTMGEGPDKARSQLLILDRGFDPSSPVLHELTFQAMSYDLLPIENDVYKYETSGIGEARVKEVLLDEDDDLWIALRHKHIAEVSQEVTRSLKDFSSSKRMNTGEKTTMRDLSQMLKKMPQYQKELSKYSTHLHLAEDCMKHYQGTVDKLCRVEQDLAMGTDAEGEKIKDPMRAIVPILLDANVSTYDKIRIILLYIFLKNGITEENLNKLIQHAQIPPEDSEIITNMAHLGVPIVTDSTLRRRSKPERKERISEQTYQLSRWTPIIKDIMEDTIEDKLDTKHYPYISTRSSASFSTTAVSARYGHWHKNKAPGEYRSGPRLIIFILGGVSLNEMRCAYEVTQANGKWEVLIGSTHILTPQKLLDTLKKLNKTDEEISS
# Test summary: ITC of Mint peptides and Sx1a binding to Munc18-1
Ends that are not written are not given here.
Measured property: Kd (µM)

In [3]: df
Out[3]:
                       sequence_input                   target_desc  measured_result
0   MDSYEQEEDIDQIVAAVKQSMS [Mint1_14]  Munc18-1 (Rattus norvegicus)              216
1  LEDQEEDIDQIVAEIKMELEMEEI [Mint2_2]  Munc18-1 (Rattus norvegicus)              200
